Biological target: CYP3A4 (Homo sapiens)
Construct: purchased BD Biosciences 456202; host or cells: baculovirus infected insect cells (BTI-TN-5B1-4)
Sequence (P08684 whole entry): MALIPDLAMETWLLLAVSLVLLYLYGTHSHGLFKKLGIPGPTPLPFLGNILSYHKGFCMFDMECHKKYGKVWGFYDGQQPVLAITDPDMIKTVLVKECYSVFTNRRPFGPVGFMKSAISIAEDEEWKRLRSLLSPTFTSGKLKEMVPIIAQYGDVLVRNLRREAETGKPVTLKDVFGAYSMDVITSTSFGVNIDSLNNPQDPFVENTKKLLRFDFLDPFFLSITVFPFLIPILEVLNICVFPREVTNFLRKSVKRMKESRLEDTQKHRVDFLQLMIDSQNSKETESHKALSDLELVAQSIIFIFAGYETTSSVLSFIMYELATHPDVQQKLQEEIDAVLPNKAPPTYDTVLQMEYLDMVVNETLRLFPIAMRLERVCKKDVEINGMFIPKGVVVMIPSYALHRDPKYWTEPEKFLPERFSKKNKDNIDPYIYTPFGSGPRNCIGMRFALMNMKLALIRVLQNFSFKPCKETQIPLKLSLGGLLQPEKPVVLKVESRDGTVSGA
Test: Enzyme kinetics of [14C]BAF312 metabolism by rhCYP3A4
Assay type: in vitro ADME
Settings: human, pH 7.4; rhCYP3A4 50 pmol/mL, 30 min, total metabolites, 5-250 μM
assay_endpoint: Km at 30 min (µM)

INSERT INTO results (given_smiles, quantitative_result) VALUES
  ('CCc1cc(/C(C)=N/OCc2ccc(C3CCCCC3)c(C(F)(F)F)c2)ccc1CN1CC(C(=O)O)C1', 85.1);

---

Experiment: Concentration-dependent biotransformation / enzyme kinetics of [14C]BAF312 in pooled human liver microsomes
Assay type: in vitro ADME
Conditions: human, pooled human liver microsomes, pH 7.4, pooled HLM 0.1 mg/mL, total metabolism, substrate inhibition (uncompetitive) model
assay_endpoint: Km at 90 min

INSERT INTO results (compound, result) VALUES
  ('CCc1cc(/C(C)=N/OCc2ccc(C3CCCCC3)c(C(F)(F)F)c2)ccc1CN1CC(C(=O)O)C1 [BAF312]', '50.3 µM');

These data points were gathered from patent US20160046573A1.
